# System: Rattus norvegicus
# procedure text: Pressor activity in ganglion-blocked vagotomized rat administered as bolus injection relative to [Asp1,Ile8]angiotension 2
# Format: functional
Where a SMILES comes first, the peptide text is derived from it. [ ]: non-standard residue; d: D form. The star is where a group is joined. Guanidinoacetyl = N=C(N)NCC(=O)*; NMeI = CC[C@H](C)[C@H](NC)C(=O)O; Sar = CNCC(=O)O
measurement type: Ratio
Answer field: number only, no words.

CC[C@H](C)[C@H](NC)C(=O)N[C@@H](CCCNC(=N)N)C(=O)N[C@H](C(=O)N[C@@H](Cc1ccc(O)cc1)C(=O)N[C@H](C(=O)N[C@@H](Cc1cnc[nH]1)C(=O)N1CCC[C@H]1C(=O)N[C@H](C(=O)O)[C@@H](C)O)[C@@H](C)CC)C(C)C (H-[NMeI]RVYIHPT-OH) | 0.12
CC[C@H](C)[C@H](NC(=O)[C@H](Cc1ccc(O)cc1)NC(=O)[C@@H](NC(=O)[C@H](CCCN=C(N)N)NC(=O)CNC)C(C)C)C(=O)N[C@@H](Cc1c[nH]cn1)C(=O)N1CCC[C@H]1C(=O)N[C@H](C(=O)O)[C@@H](C)O (H-[Sar]RVYIHPT-OH) | 0.6
CC[C@H](C)[C@H](NC(=O)[C@H](Cc1ccc(O)cc1)NC(=O)[C@@H](NC(=O)[C@H](CCCNC(=N)N)NC(=O)CNC(=N)N)C(C)C)C(=O)N[C@@H](Cc1cnc[nH]1)C(=O)N1CCC[C@H]1C(=O)N[C@H](C(=O)O)[C@@H](C)O (Guanidinoacetyl-RVYIHPT-OH) | 0.15

Query molecule follows.
input: Give the measured Ratio for CC[C@H](C)[C@H](NC(=O)[C@H](Cc1ccc(O)cc1)NC(=O)[C@@H](NC(=O)[C@H](CCCNC(=N)N)NC(=O)CNC)C(C)C)C(=O)N[C@@H](Cc1cnc[nH]1)C(=O)N1CCC[C@H]1C(=O)N[C@H](C(=O)O)[C@@H](C)OC
output: 0.48

---

# Organism: Oryctolagus cuniculus
# procedure text: Binding affinity to angiotensin 2 receptor in rabbit aortic strip
Where a SMILES comes first, the peptide text is derived from it. [ ]: non-standard residue; d: D form. Sar = CNCC(=O)O
Reported log K by item:

input: Provide log K value for the following compound: CC[C@H](C)[C@H](NC(=O)[C@H](Cc1ccc(O)cc1)NC(=O)[C@@H](NC(=O)[C@H](CCCN=C(N)N)NC(=O)CNC)C(C)C)C(=O)N[C@@H](Cc1c[nH]cn1)C(=O)N1CCC[C@H]1C(=O)N[C@H](C(=O)O)[C@@H](C)O (H-[Sar]RVYIHPT-OH)
output: 8.1

---

Reported Activity values follow for various compounds
# System: Rattus norvegicus
# procedure text: Pressor activity in ganglion-blocked vagotomized rat assessed as rise in blood pressure at 250 ng/kg/min, iv administered as infusion measured after 10 mins relative to control
# Type: functional
Where a SMILES comes first, the peptide text is derived from it. [ ]: non-standard residue; d: D form. The star is where a group is joined. Me2Gly = CN(C)CC(=O)*; Sar = CNCC(=O)O
// units = mmHg; emit number, no label

input: Hello, please tell me recorded Activity for this one: CC[C@H](C)[C@H](NC(=O)[C@H](Cc1ccc(O)cc1)NC(=O)[C@@H](NC(=O)[C@H](CCCNC(=N)N)NC(=O)CNC)C(C)C)C(=O)N[C@@H](Cc1cnc[nH]1)C(=O)N1CCC[C@H]1C(=O)N[C@H](C(=O)O)[C@@H](C)OC
output: 15.88

input: Give Activity for the following compound: CC[C@H](C)[C@H](NC(=O)[C@H](Cc1ccc(O)cc1)NC(=O)[C@@H](NC(=O)[C@H](CCCNC(=N)N)NC(=O)CN(C)C)C(C)C)C(=O)N[C@@H](Cc1cnc[nH]1)C(=O)N1CCC[C@H]1C(=O)N[C@H](C(=O)O)[C@@H](C)O (Me2Gly-RVYIHPT-OH)
output: 12.57

input: Give the value of Activity reported for the following: CC[C@H](C)[C@H](NC(=O)[C@H](Cc1ccc(O)cc1)NC(=O)[C@@H](NC(=O)[C@H](CCCNC(=N)N)NC(=O)CNC)C(C)C)C(=O)N[C@@H](Cc1cnc[nH]1)C(=O)N1CCC[C@H]1C(=O)N[C@@H](COC)C(=O)O
output: 16.16

input: Report measured Activity; entry is CC[C@H](C)[C@H](NC(=O)[C@H](Cc1ccc(O)cc1)NC(=O)[C@@H](NC(=O)[C@H](CCCN=C(N)N)NC(=O)CNC)C(C)C)C(=O)N[C@@H](Cc1c[nH]cn1)C(=O)N1CCC[C@H]1C(=O)N[C@H](C(=O)O)[C@@H](C)O (H-[Sar]RVYIHPT-OH)
output: 9.66

---

# Tested on: Rattus norvegicus
# procedure text: Pressor activity in ganglion-blocked vagotomized rat administered as bolus injection relative to [Asp1,Ile8]angiotension 2
# Format: functional
Where a SMILES comes first, the peptide text is derived from it. The star is where a group is joined. Me2Gly = CN(C)CC(=O)*
Listing of recorded Ratio by entry.
Format: numeric value only, no unit, no commentary.

CC[C@H](C)[C@H](NC(=O)[C@H](Cc1ccc(O)cc1)NC(=O)[C@@H](NC(=O)[C@H](CCCNC(=N)N)NC(=O)CNC)C(C)C)C(=O)N[C@@H](Cc1cnc[nH]1)C(=O)N1CCC[C@H]1C(=O)N[C@@H](COC)C(=O)O | 0.49

Would you kindly look at the next entry?
input: Identify measured Ratio corresponding to CC[C@H](C)[C@H](NC(=O)[C@H](Cc1ccc(O)cc1)NC(=O)[C@@H](NC(=O)[C@H](CCCNC(=N)N)NC(=O)CN(C)C)C(C)C)C(=O)N[C@@H](Cc1cnc[nH]1)C(=O)N1CCC[C@H]1C(=O)N[C@H](C(=O)O)[C@@H](C)O (Me2Gly-RVYIHPT-OH)
output: 0.38

---

# log K annotations
# Species on record: Oryctolagus cuniculus
# procedure text: Binding affinity to angiotensin 2 receptor in rabbit aortic strip
Where a SMILES comes first, the peptide text is derived from it. The star is where a group is joined. Guanidinoacetyl = N=C(N)NCC(=O)*

CC[C@H](C)[C@H](NC(=O)[C@H](Cc1ccc(O)cc1)NC(=O)[C@@H](NC(=O)[C@H](CCCNC(=N)N)NC(=O)CNC(=N)N)C(C)C)C(=O)N[C@@H](Cc1cnc[nH]1)C(=O)N1CCC[C@H]1C(=O)N[C@H](C(=O)O)[C@@H](C)O (Guanidinoacetyl-RVYIHPT-OH) | 2.12

Continue with the next molecule.
input: Tell me log K reported for CC[C@H](C)[C@H](NC(=O)[C@H](Cc1ccc(O)cc1)NC(=O)[C@@H](NC(=O)[C@H](CCCNC(=N)N)NC(=O)CNC)C(C)C)C(=O)N[C@@H](Cc1cnc[nH]1)C(=O)N1CCC[C@H]1C(=O)N[C@H](C(=O)O)[C@@H](C)OC
output: 8.39

---

List of log K values.
# Organism: Oryctolagus cuniculus
# procedure text: Binding affinity to angiotensin 2 receptor in rabbit aortic strip
Where a SMILES comes first, the peptide text is derived from it. [ ]: non-standard residue; d: D form. The star is where a group is joined. NMeI = CC[C@H](C)[C@H](NC)C(=O)O; Me2Gly = CN(C)CC(=O)*
In your answer, state the number alone without any accompanying words.

Use these answered entries as a reference point.
CC[C@H](C)[C@H](NC(=O)[C@H](Cc1ccc(O)cc1)NC(=O)[C@@H](NC(=O)[C@H](CCCNC(=N)N)NC(=O)CN(C)C)C(C)C)C(=O)N[C@@H](Cc1cnc[nH]1)C(=O)N1CCC[C@H]1C(=O)N[C@H](C(=O)O)[C@@H](C)O (Me2Gly-RVYIHPT-OH) | 2.83
CC[C@H](C)[C@H](NC)C(=O)N[C@@H](CCCNC(=N)N)C(=O)N[C@H](C(=O)N[C@@H](Cc1ccc(O)cc1)C(=O)N[C@H](C(=O)N[C@@H](Cc1cnc[nH]1)C(=O)N1CCC[C@H]1C(=O)N[C@H](C(=O)O)[C@@H](C)O)[C@@H](C)CC)C(C)C (H-[NMeI]RVYIHPT-OH) | 2.48

input: Retrieve log K measured for CC[C@H](C)[C@H](NC(=O)[C@H](Cc1ccc(O)cc1)NC(=O)[C@@H](NC(=O)[C@H](CCCNC(=N)N)NC(=O)CNC)C(C)C)C(=O)N[C@@H](Cc1cnc[nH]1)C(=O)N1CCC[C@H]1C(=O)N[C@@H](COC)C(=O)O and print it.
output: 5.58
